- subject_of_test: Cytochrome P450 2C19 (Homo sapiens) (UniProt P33261)
- Sequence (P33261 whole entry, looked up): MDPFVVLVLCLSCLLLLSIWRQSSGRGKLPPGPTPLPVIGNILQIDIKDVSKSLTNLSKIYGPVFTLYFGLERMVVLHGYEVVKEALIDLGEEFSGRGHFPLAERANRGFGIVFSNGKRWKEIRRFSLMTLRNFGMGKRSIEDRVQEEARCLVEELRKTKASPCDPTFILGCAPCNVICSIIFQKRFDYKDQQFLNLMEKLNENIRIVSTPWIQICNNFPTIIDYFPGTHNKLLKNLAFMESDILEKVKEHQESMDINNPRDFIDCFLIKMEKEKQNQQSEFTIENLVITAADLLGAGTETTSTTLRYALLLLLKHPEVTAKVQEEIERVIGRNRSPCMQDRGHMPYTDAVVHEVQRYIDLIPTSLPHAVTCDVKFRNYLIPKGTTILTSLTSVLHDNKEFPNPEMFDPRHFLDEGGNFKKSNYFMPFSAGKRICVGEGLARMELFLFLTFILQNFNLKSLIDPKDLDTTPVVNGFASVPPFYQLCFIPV
- protocol_details: qHTS Assay for Inhibitors and Substrates of Cytochrome P450 2C19 (AID 899); note: nearly all actives have a fitted effect of over 60% in size
- measurement_conditions: recombinant CYP2C19, luciferin-H EGE luminescence; series mostly up to 11.4 µM
Results filed as inconclusive are left out. Active and inactive are the calls of the source. Calls come from the whole dose curve; as a rule, active = well fitted inhibition curve with a large enough effect; inconclusive = small, poorly fitted or top-dose-only effect; inactive = no such curve, though single readings can be large or run the other way.
API: response.call in active, inactive

q: Which outcome did this test record for the compound NCCSC(c1ccccc1)c1ccccc1 ?
a: active

q: Test call for this compound, please: O=C(O)C[O][Sb][O]CC(=O)O
a: inactive

q: Fill in: this test's call for Cc1ccc(NC(=[OH+])c2cc3ccccc3cc2O)c(C)c1.Cc1ccc(NC(=[OH+])c2cc3ccccc3cc2O)c(C)c1.[Ni] is ___
a: active

q: Query: recorded result category for CC(C)CNCCc1ccccn1 in this test
a: inactive

q: Which result was noted for this compound in the test: CCOC(=O)[C@@H]1[C@@H]2c3ccccc3-c3ccccc3[C@H]2C[C@H]1O
a: active

q: Which outcome was assigned to N[C@H](Cn1oc(=O)[nH]c1=O)C(=O)O in this test?
a: inactive
